Reported pIC50 values follow for various compounds
# Tested system: recombinant human FGFR2 cytoplasmic domain (amino acids 403-822) (Homo sapiens (Human))
# Sequence (P21802 402-821): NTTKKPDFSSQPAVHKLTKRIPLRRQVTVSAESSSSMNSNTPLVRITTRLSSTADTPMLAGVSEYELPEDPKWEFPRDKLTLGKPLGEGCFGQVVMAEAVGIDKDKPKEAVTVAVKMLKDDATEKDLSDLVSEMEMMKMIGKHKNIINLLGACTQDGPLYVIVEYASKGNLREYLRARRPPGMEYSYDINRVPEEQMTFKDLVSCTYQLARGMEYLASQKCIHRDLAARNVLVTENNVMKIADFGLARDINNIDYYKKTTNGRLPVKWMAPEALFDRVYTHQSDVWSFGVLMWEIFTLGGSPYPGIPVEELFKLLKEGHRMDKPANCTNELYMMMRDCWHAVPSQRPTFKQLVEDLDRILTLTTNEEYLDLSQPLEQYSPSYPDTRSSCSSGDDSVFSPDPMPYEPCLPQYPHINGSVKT
# Method notes: FGFR2 enzyme activity assay (LanthaScreen TR-FRET)
# Experimental setup: 15 μM ATP, 20 min incubation at 22° C., average of multiple determinations if made, read-out: FGFR2 Enz FRET IC50
pIC50: −log10 of the molar value.
Measure name: pIC50

- Smiles representation: "COc1cc(-c2nnn(C3CCN(C(=O)C4(F)CN(C(=O)/C=C/CN(C)C)C4)CC3)c2C)cn2ncc(C#N)c12"
  Tested system: "recombinant human FGFR2 cytoplasmic domain (amino acids 403-822) (Homo sapiens (Human))"
  Reported measurement: 7.82
- Smiles representation: "C=CC(=O)N1CC(C(=O)N2CCN(c3cnc(-c4cc(OC)c5c(C#N)cnn5c4)cn3)CC2)C1"
  Tested system: "recombinant human FGFR2 cytoplasmic domain (amino acids 403-822) (Homo sapiens (Human))"
  Reported measurement: 7.72
- Smiles representation: "C=CC(=O)N1CC(C(=O)N2CC[C@@H](n3cc(-c4cc(OC)c5c(C#N)cnn5c4)cn3)C2)C1"
  Tested system: "recombinant human FGFR2 cytoplasmic domain (amino acids 403-822) (Homo sapiens (Human))"
  Reported measurement: 7.80
- Smiles representation: "COc1cc(-c2cnn(C3CCN(CC4(OC)CN(C(=O)/C=C/CN(C)C)C4)CC3)c2C)cn2ncc(Cl)c12"
  Tested system: "recombinant human FGFR2 cytoplasmic domain (amino acids 403-822) (Homo sapiens (Human))"
  Reported measurement: 7.55
- Smiles representation: "C=CC(=O)N[C@H]1C[C@@H](C(=O)N2CC[C@@H](n3cc(-c4cc(OC)c5c(C#N)cnn5c4)cn3)C2)C1"
  Tested system: "recombinant human FGFR2 cytoplasmic domain (amino acids 403-822) (Homo sapiens (Human))"
  Reported measurement: 8.22
- Smiles representation: "C=CC(=O)N1CCN(C(=O)N2CCC(n3cc(-c4cc(OC)c5c(C#N)cnn5c4)cn3)CC2)CC1"
  Tested system: "recombinant human FGFR2 cytoplasmic domain (amino acids 403-822) (Homo sapiens (Human))"
  Reported measurement: 7.85
- Smiles representation: "C=CC(=O)N1C2CC1CN(C(=O)N1CCC(n3cc(-c4cc(OC)c5c(C#N)cnn5c4)cn3)CC1)C2"
  Tested system: "recombinant human FGFR2 cytoplasmic domain (amino acids 403-822) (Homo sapiens (Human))"
  Reported measurement: 7.82
- Smiles representation: "C=CC(=O)Nc1cccc(C(=O)N2CCC(n3cc(-c4cc(OC)c5c(C#N)cnn5c4)cn3)CC2)c1"
  Tested system: "recombinant human FGFR2 cytoplasmic domain (amino acids 403-822) (Homo sapiens (Human))"
  Reported measurement: 8.30
- Smiles representation: "C=CC(=O)N1CC(C(=O)N2CCC(n3cc(-c4cc(OCC)c5c(C#N)cnn5c4)cn3)CC2)C1"
  Tested system: "recombinant human FGFR2 cytoplasmic domain (amino acids 403-822) (Homo sapiens (Human))"
  Reported measurement: 8.22
- Smiles representation: "C=CC(=O)N1CC(C(=O)N2CCN(c3ccc(-c4cc(OC)c5c(C#N)cnn5c4)cn3)CC2)C1"
  Tested system: "recombinant human FGFR2 cytoplasmic domain (amino acids 403-822) (Homo sapiens (Human))"
  Reported measurement: 8.40
- Smiles representation: "C=CC(=O)N[C@H]1C[C@H](C(=O)N2CC[C@H](n3cc(-c4cc(OC)c5c(C#N)cnn5c4)cn3)C2)C1"
  Tested system: "recombinant human FGFR2 cytoplasmic domain (amino acids 403-822) (Homo sapiens (Human))"
  Reported measurement: 8.22
- Smiles representation: "C=CC(=O)N1CCC(C(=O)N2CCC(n3ncc(-c4cc(OC)c5c(C#N)cnn5c4)c3C)CC2)CC1"
  Tested system: "recombinant human FGFR2 cytoplasmic domain (amino acids 403-822) (Homo sapiens (Human))"
  Reported measurement: 8.05
- Smiles representation: "C=CC(=O)N[C@H]1C[C@@H](C(=O)N2CC(n3cc(-c4cc(OC)c5c(C#N)cnn5c4)cn3)C2)C1"
  Tested system: "recombinant human FGFR2 cytoplasmic domain (amino acids 403-822) (Homo sapiens (Human))"
  Reported measurement: 8.15
- Smiles representation: "C=CC(=O)N1CCN(C(=O)N2CCC(n3cc(-c4cc(OC)c5c(C#N)cnn5c4)cn3)CC2)C[C@@H]1CC#N"
  Tested system: "recombinant human FGFR2 cytoplasmic domain (amino acids 403-822) (Homo sapiens (Human))"
  Reported measurement: 8.40
